Below, each entry is listed with its recorded solubility.
- Measurement description: Approximate solubility limit in Alpha MEM culture medium containing 5% fetal calf serum
- Type: physicochemical
- Condition set: plasma or biological fluid, kinetic from dmso stock, dilution from DMSO stock solutions
Quantity name: solubility

1. [O-][n+]1nc(CCO)nc2ccccc21 :: 3000 µM
2. CCc1nc2ccccc2[n+]([O-])n1 [Compound 56, 3-Ethyl-1,2,4-benzotriazine 1-oxide] :: 3000 µM
3. CNCCNc1nc2ccccc2[n+]([O-])n1 :: 3000 µM
4. Nc1nc2ccccc2[n+]([O-])n1 [Compound 3, 1,2,4-Benzotriazin-3-amine 1-oxide] :: 800 µM
5. COc1nc2ccccc2[n+]([O-])n1 [Compound 71, 3-Methoxy-1,2,4-benzotriazine 1-oxide] :: 300 µM
6. CN(C)CCNc1nc2ccccc2[n+]([O-])n1 :: 1000 µM
7. N#CCNc1nc2ccccc2[n+]([O-])n1 :: 300 µM

###

Quantity name: melting point

1) Cc1ccc2c(c1)nc(NCCO)n[n+]2[O-] :: 198 to 202 °C
2) COc1ccc2nc(NCCN3CCOCC3)n[n+]([O-])c2c1 :: 208 to 212 °C
3) COc1ccc2c(c1)nc(N)n[n+]2[O-] :: 265 to 270 °C
4) O=C(NCCOCCNc1nc2ccccc2[n+]([O-])n1)c1cccc2cc3ccccc3nc12 :: 178 to 182 °C
5) COc1ccc2c(c1)nc(NCCN1CCOCC1)n[n+]2[O-] :: 186 to 188 °C
6) COc1cc2c(cc1C)nc(NCCN1CCCCC1)n[n+]2[O-] :: 195 to 197 °C
7) COc1ccc(-c2nc3ccccc3[n+]([O-])n2)cc1 :: 168 to 170 °C
8) CCCCSc1cccc2nc(N)n[n+]([O-])c12 :: 233 to 236 °C
9) [N-]=[N+]=NCCOCCNc1nc2ccccc2[n+]([O-])n1 :: 102 to 104 °C
10) [O-][n+]1nc(NCCN2CCOCC2)nc2ccccc21 :: 170 to 172 °C

###

Quantity name: melting point

1) Nc1nc2cc(-c3ccccc3)ccc2[n+]([O-])n1 [Compound 3s] :: 256 to 258 °C
2) COc1cccc2c1nc(N)n[n+]2[O-] [Compound 3y] :: 267 °C (dec.)
3) Cl.[O-][n+]1nc(CCCN2CCCCC2)nc2ccccc21 :: 151 to 153 °C
4) CCCCSc1ccc2c(c1)nc(N)n[n+]2[O-] [Compound 3x] :: 180 to 182 °C
5) Cc1ccc2c(c1)nc(NCCN1CCOCC1)n[n+]2[O-] [Compound 138] :: 182 to 184 °C
6) Nc1nc2cccc(Cl)c2[n+]([O-])n1 [Compound 3d] :: 280 to 290 °C (dec.)
7) CN(C)CCNC(=O)Cc1ccc(Nc2nc3ccccc3[n+]([O-])n2)cc1 [Compound 54] :: 225 to 226 °C
8) CN(C)CCCc1nc2ccccc2[n+]([O-])n1.Cl :: 228 to 230 °C
9) Nc1nc2ccc(F)cc2[n+]([O-])n1 [Compound 3k] :: 280 to 290 °C (dec.)
10) COCCNC(=O)Cc1ccc(Nc2nc3ccccc3[n+]([O-])n2)cc1 [Compound 53] :: 216 to 218 °C
11) Cc1ccc2nc(N)n[n+]([O-])c2c1 [Compound 3j] :: 270 °C (dec.)

Origin of the recorded values: patent US20040192686A1
